Origin of values: patent US20120232062A1

Below, each entry is listed with its recorded concentration at 4 h.
EXPERIMENT_NOTES: In vivo rat pharmacokinetic studies
EXPERIMENTAL_PARAMETERS: liver, 20 mg/kg; rat, PO 20 mpk, 4 h; read-out: Liver
PROPERTY_MEASURED: concentration at 4 h (ng/g)

INSERT INTO measurements (molecule, unit_of_measure, obs_value) VALUES
  ('CCN1CCC(NC(=O)c2nn(C)c3nc(N4CCCCCC4)ccc23)CC1 [EBP1595]', 'ng/g', 1400),
  ('Cn1nc(C(=O)NC2CCN(CCN3CCCCC3)CC2)c2ccc(N3CCCCCC3)nc21 [EBP1047]', 'ng/g', 2670),
  ('CC(C)N1CCC(NC(=O)c2nn(C)c3nc(N4CCCCCC4)ccc23)CC1 [EBP1604]', 'ng/g', 203);
